Examples of compounds with documented pEC50 follow.
- target-entity: Keap1/Nrf2 (Homo sapiens, UniProt Q14145)
- Sequence (Q16236 whole entry, the tested form may be a part): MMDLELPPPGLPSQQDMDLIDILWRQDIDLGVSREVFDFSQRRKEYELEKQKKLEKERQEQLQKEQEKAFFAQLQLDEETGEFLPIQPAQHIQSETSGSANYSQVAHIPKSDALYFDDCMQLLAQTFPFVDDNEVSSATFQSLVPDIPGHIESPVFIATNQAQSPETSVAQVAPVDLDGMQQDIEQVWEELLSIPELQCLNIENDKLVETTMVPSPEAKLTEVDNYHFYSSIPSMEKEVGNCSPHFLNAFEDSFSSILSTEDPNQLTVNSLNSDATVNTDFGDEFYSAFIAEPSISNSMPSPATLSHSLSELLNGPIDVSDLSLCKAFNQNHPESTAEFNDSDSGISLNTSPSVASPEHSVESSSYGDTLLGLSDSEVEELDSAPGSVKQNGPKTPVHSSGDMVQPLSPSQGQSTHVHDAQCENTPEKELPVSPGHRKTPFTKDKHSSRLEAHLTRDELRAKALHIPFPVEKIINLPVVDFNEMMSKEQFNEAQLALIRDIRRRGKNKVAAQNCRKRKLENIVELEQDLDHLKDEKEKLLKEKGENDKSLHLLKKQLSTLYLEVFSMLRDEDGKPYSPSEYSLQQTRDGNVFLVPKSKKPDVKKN
- Sequence (Q14145 whole entry, the tested form may be a part): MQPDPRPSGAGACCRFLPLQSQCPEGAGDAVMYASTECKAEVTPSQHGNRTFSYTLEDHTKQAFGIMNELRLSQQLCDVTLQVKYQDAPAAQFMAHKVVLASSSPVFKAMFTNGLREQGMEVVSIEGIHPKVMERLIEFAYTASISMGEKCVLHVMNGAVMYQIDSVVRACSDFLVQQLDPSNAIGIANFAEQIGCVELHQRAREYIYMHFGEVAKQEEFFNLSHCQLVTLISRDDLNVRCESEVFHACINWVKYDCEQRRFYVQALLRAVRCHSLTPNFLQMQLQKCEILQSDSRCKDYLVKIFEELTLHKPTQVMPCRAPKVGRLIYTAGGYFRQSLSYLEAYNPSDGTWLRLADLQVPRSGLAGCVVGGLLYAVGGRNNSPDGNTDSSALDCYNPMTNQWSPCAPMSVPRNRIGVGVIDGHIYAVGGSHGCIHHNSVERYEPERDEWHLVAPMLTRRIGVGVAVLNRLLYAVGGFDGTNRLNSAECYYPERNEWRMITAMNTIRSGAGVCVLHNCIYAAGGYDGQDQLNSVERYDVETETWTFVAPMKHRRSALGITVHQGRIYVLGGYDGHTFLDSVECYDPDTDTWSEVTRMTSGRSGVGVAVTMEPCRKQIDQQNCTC
- run-description: Inhibition of kelch domain of Keap1 (unknown origin) interaction to high affinity ETGE motif from Nrf2 by fluorescence polarization assay
- Type: protein assay
Worth noting: pEC50 values are minus log10 of concentrations stated in mol/L.

Report pEC50 on Keap1/Nrf2 (Homo sapiens, UniProt Q14145) for this entry: O=C(O)c1cccc(-n2cc(-c3cccc([N+](=O)[O-])c3)nn2)c1 5.30

Provide pEC50, recorded with Keap1/Nrf2 (Homo sapiens, UniProt Q14145), of O=[N+]([O-])c1cccc(-c2cn(-c3cccc([N+](=O)[O-])c3)nn2)c1 4.94

Provide pEC50, system Keap1/Nrf2 (Homo sapiens, UniProt Q14145), entry O=[N+]([O-])c1cccc(-c2cn(-c3cccc(I)c3)nn2)c1 5.15

---

- run-description: Cytotoxicity against mouse Hepa1c1c7 cells assessed as cell viability at 200 uM after 24 to 48 hrs by SRB assay
- Assay type: cell-based
- condition-info: read-out: Activity
quantity-name: viability at 200 µM (%)
Report only the number, with the unit % understood.

Give a short answer stating reported viability at 200 µM for O=[N+]([O-])c1cccc(-c2cn(-c3cccc(I)c3)nn2)c1 . 100

---

- target-entity: Keap1/Nrf2 (Homo sapiens) (UniProt Q16236+Q14145)
- run-description: Inhibition of kelch domain of Keap1 (unknown origin) interaction to high affinity ETGE motif from Nrf2 unknown origin) at 100 uM by fluorescence polarization assay
- Assay type: protein assay
quantity-name: inhibition (%)
Number in %, nothing else.

O=[N+]([O-])c1cccc(-c2cn(-c3cccc(C(F)(F)F)c3)nn2)c1	66.9

Output measured inhibition for this item: NC(=O)c1cccc(-c2cn(-c3cccc([N+](=O)[O-])c3)nn2)c1 32

// fetch inhibition given entry CCOc1cccc(-n2cc(-c3cccc([N+](=O)[O-])c3)nn2)c1 69.3

---

- target-entity: Keap1/Nrf2 (Homo sapiens) (UniProt Q16236+Q14145)
- run-description: Inhibition of kelch domain of Keap1 (unknown origin) interaction to high affinity ETGE motif from Nrf2 unknown origin) at 100 uM by fluorescence polarization assay
- Assay type: protein assay
# inhibition binned as bin 1: < 60%; bin 2: ≥ 60% and < 70%; bin 3: ≥ 70%

O=C(O)c1cccc(-n2cc(-c3cccc([N+](=O)[O-])c3)nn2)c1	bin 3
NC(=O)c1ccc(-n2cc(-c3cccc(C(=O)O)c3)nn2)cc1	bin 3
N#Cc1cccc(-c2cn(-c3cccc(Cl)c3)nn2)c1	bin 1

In plain terms, what class is O=C(O)c1ccc(-c2cn(-c3cccc([N+](=O)[O-])c3)nn2)cc1 ? bin 3

Exam item: assign CCOc1cccc(-n2cc(-c3cccc(-c4nnn[nH]4)c3)nn2)c1 to the correct category. bin 1

Band assignment needed for O=[N+]([O-])c1cccc(-c2cn(-c3ccccc3)nn2)c1 please. bin 2

Which band does NC(=O)c1cccc(-n2cc(-c3ccc([N+](=O)[O-])cc3)nn2)c1 fall in? bin 2

Assign a category based on measured inhibition for CN(C)c1cccc(-n2cc(-c3cccc([N+](=O)[O-])c3)nn2)c1 and give only the class name. bin 2

Class label required: NC(=O)c1cccc(-n2cc(-c3cccc(C(=O)O)c3)nn2)c1 bin 3

Band assignment needed for O=[N+]([O-])c1ccc(-c2cn(-c3cccc([N+](=O)[O-])c3)nn2)cc1 please. bin 1

GET /class?item= O=C(O)c1ccc(-c2cn(-c3cccc(C(=O)O)c3)nn2)cc1 bin 3

Determine which band this compound sits in: O=C(O)c1cccc(-c2cn(-c3cccc([N+](=O)[O-])c3)nn2)c1 bin 2

Form: Item = NC(=O)c1cccc(-n2cc(-c3ccc(C(=O)O)cc3)nn2)c1 ; Class = ? bin 1
